# target or system: T1, chromodomain of CDYL2 (residues 1-75 of NP_689555) (UniProt Q8N8U2 1-75)
# T1 construct: chromodomain Y-like protein 2 (CDYL2), chromodomain, residues 1-75 of NP_689555; source: E. coli Rosetta2 BL21(DE3)pLysS, purified (HisTrap FF, Superdex 75)
# T1 sequence (looked up): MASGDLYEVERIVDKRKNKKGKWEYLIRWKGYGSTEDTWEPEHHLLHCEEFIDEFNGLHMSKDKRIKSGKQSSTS
# experiment summary: AlphaScreen or HTRF; TR-FRET competition assay for CDYL2, dose-response; 20 mM tris pH 7.5, 150 mM NaCl, 0.05% Tween 20, 2 mM DTT; 1 h equilibration; tracer not named (ref. 30)
# condition summary: both partners purified
*1 amine or outer side, *2 acyl side, *3 side chain or, on linkers, in order; H or OH if unused. [ ]: non-standard residue; d: D form. X1 = N6‑isopropyl‑N6‑((1-methyl-1H-imidazol-5-yl)methyl)Lys, CC(C)N(CCCC[C@H](N[*:1])C(=O)[*:2])Cc1cncn1C; Phe(F5) = N[C@@H](Cc1c(F)c(F)c(F)c(F)c1F)C(=O)O
value type: IC50 (nM)
Provide only the numeric value, understood in nM.

So, {piperidine‑4‑carbonyl}-[Phe(F5)]AF[X1]S-OMe (peptidomimetic pentapeptide; F1 stands for pentafluorophenylalanine, K4 for the dialkylated lysine mimetic; also called CDYL antagonist; source: synthetic, purified by reverse phase flash chromatography (TFA salt)) [UNC6261] ? Its IC50 was 81
